Parameter in vitro activity (%, relative to SEQ ID NO: 1); cAMP assay, from EC50: see the listing below.
ASSAY_SYSTEM: human glucagon receptor (human, UniProt P47871 26-477)
Sequence (P47871 26-477): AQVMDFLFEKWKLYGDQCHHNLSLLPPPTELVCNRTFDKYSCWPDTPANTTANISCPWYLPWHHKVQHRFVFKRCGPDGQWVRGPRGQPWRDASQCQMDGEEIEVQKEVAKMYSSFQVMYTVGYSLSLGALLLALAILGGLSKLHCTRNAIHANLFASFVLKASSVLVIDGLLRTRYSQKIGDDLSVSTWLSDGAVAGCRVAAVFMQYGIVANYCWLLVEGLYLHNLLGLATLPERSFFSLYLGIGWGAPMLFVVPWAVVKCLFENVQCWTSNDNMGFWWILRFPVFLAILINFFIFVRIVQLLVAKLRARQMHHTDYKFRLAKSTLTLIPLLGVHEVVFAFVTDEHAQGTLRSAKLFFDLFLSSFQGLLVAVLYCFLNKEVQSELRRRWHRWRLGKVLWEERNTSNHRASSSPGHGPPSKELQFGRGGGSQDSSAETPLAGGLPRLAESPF
ASSAY_DETAILS: cell-based or functional assay
Positions of bridges follow the written chain, without caps; N, C: chain ends. Non-standard residues stand in square brackets, D forms with d. No end group written: not given here. Aib = CC(C)(N)C(=O)O
MEASURED_METRIC: in vitro activity (%, relative to SEQ ID NO: 1); cAMP assay, from EC50 (%)

BINDER: Y[Aib]QGTFTSDYSKYCDERRAKEFVQWLMNT (lactam 16-20) [glucagon derivative of SEQ ID NO: 35]
OPERATOR: =
TEST_VALUE: 17.7
--
BINDER: Y[Aib]QGTFTSDYSKYLDSCDAQDFVQWLINT [glucagon derivative of SEQ ID NO: 8]
OPERATOR: <
TEST_VALUE: 0.1
--
BINDER: HSQGTFTSDYSKYLDCERAQDFVQWLMNT [glucagon derivative of SEQ ID NO: 3]
OPERATOR: =
TEST_VALUE: 6.1
--
BINDER: W[Aib]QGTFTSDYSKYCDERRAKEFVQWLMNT (lactam 16-20) [glucagon derivative of SEQ ID NO: 34]
OPERATOR: =
TEST_VALUE: 0.2
--
BINDER: Y[Aib]QGTFTSDYSKYLDEKRAKEFVQWLMNTC (lactam 16-20) [glucagon derivative of SEQ ID NO: 12]
OPERATOR: =
TEST_VALUE: 56.3
--
BINDER: Y[Aib]QGTFTSDYSKYLDEKCAKEFVQWLMNT (lactam 16-20) [glucagon derivative of SEQ ID NO: 21]
OPERATOR: =
TEST_VALUE: 57.8

The measured values listed here are drawn from patent US20210338779A1.
